Assay type: in vivo, human
experimentalParameters: human, plasma, intravenous, 0.3 μg/kg; average; read-out: plasma elimination half life time (converted)
quantity: half-life (h)
Numbers only, in h.

Entry "C[N+](C)(C)CCOP(=O)([O-])OCCCCCCCCCCCCCCCCCCc1ccc(I)cc1" has what half-life?
113
